The origin of these recorded values is patent US20240400703A1.

# target or system: recombinant human OX40 fused to a His-tag (Acro Biosystems, cat. no. OX0-H5224) (human) (UniProt P43489)
# Sequence (P43489 29-214 limits assumed): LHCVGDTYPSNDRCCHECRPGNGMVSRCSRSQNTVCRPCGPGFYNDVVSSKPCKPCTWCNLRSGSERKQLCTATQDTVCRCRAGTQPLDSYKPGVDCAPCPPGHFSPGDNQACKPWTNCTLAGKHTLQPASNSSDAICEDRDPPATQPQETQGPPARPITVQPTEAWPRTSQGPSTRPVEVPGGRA
# protocol details: BLI cross-block; first Ab (competitor): IgG1-CD134-IBI101
readout kind: association response (nm)
Write the answer as a number in nm, unit excluded.

IgG1-CD134-GBR830 (antibody, INN chains, looked up, V domains shown, IgG1) VH: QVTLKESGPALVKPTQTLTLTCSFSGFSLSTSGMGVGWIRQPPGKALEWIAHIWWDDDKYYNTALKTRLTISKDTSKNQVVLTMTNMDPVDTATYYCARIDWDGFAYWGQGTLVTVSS VL: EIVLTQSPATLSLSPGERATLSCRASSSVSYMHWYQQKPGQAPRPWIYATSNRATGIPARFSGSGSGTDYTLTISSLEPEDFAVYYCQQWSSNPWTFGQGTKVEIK	0.02
IgG1-CD134-ABBV368 (antibody, INN chains, looked up, V domains shown, IgG1) VH: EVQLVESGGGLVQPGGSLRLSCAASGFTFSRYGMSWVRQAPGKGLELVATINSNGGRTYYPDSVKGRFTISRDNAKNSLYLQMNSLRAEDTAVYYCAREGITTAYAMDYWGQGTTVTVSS VL: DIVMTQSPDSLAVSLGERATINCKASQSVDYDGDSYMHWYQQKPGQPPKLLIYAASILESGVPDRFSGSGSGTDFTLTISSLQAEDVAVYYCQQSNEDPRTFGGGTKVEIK	0.01
IgG1-CD134-Hu106 (antibody, from another filing, V domains shown) VH: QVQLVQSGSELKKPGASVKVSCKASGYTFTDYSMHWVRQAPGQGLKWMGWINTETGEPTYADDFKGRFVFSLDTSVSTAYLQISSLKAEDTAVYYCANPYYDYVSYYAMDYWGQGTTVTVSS VL: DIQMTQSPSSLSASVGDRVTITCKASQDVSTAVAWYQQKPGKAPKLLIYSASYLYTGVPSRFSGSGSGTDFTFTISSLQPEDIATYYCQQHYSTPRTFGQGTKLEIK	0.01
IgG1-CD134-RG7888 (antibody, INN chains, looked up, V domains shown, IgG1) VH: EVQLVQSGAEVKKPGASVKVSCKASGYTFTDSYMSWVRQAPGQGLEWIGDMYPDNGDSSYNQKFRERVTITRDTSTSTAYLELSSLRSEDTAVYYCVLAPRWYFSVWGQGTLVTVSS VL: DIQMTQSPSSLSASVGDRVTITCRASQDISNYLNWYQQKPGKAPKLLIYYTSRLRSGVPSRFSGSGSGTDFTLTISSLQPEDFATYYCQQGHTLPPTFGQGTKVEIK	0.23

Value of association response reported for the binder IgG1-CD134-MEDI0562 (antibody, INN chains, looked up, V domains shown, IgG1) VH: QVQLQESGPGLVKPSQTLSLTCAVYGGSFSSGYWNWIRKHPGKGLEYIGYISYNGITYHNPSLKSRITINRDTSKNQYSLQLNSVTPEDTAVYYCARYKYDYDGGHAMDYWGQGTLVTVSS VL: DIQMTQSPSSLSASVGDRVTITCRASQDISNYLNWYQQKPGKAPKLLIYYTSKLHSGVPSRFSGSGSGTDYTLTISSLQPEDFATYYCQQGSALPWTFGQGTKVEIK is 0.28
